Target: T1, hFc-hFasL (fusion protein of human Fc fragment and human FasL extracellular region) (human, UniProt P48023 134-281)
T1 sequence: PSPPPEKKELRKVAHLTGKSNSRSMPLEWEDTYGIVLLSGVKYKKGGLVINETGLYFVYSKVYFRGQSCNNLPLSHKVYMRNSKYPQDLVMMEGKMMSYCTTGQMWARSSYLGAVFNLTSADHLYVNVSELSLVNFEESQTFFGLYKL
Test: cell-based or functional assay
List of IC50(nM), FasL antigen-induced apoptosis of HepG2 cells (CellTiter-Glo ATP) values.
Write the value in nM as a bare number.

Solved entries:
[
  {
    "Binder": "FL-M54 (antibody, V domains shown, Chimeric full-length antibody, tested as human IgG4 / human kappa) VH: EVQLQQSGVELVKPGASVKLSCKASGYTFTRFDISWVRQRPEQGLEWIGWIFPGDGSSQYNENFKGKATLTTDKSSGTAYMQLNRLTSEDSAVYFCARSLISTAMFDHWGQGTTLTVSS VL: DIVMTQSPASLAVSLGQRATISCRASKSVSTSDFSYIHWYQQKPGQPPKLLIFLASHLESGVPARFSGSGSGTDFTLNIHPVEEEDAATYYCQHSRELPRTFGGGTKLEIK",
    "Result units": "nM",
    "Numeric value": 0.018
  },
  {
    "Binder": "FL-M78 (antibody, V domains shown, Chimeric full-length antibody, tested as human IgG4 / human kappa) VH: DVQLQESGGGLVQPGGSRKLSCAASGFTFSSYDMSWVRQTPEKRLEWVAFISSGGGSTYYPDTVKGRFTISRDNAKNTLYLQMSSLKSEDSAMYYCGRHYDNYLYAMDYWGQGTSVTVSS VL: DIVMTQSPASQSASLGESVTITCLASQTIGTWLAWYQQKPGKSPQLLIYAATSLADGVPSRFSGSGSGTKFSFKISSLQAEDFVSYYCQQLYSTPFTFGGGTKLEIK",
    "Result units": "nM",
    "Numeric value": 0.016
  }
]

input: Quick one: give measured IC50(nM), FasL antigen-induced apoptosis of HepG2 cells (CellTiter-Glo ATP) for APG101 (Fas fusion protein, Apogenix) (Fc fusion, UniProt P25445 26-172, looked up, also called Fas-Fc fusion protein APG101; FasL antagonist APG101; not shown: Fc part of APG101) QVTDINSKGLELRKTVTTVETQNLEGLHHDGQFCHKPCPPGERKARDCTVNGDEPDCVPCQEGKEYTDKAHFSSKCRRCRLCDEGHGLEVEINCTRTQNTKCRCKPNFFCNSTVCEHCDPCTKCEHGIIKECTLTSNTKCKEEGSRS
output: 11.3
